From: the supplement of paper PMC10567573

B1: CLCN6 (parent)
chain: ILRSQLVTLLVRGVCYSESQSSAS

Variants of: B1
assay_details: protein stability index of a GFP-peptide fusion (GPS, HEK-293T) (PSI 1-6); higher = more stable;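 note: lentivirally expressed fusions sorted by FACS into six bins by GFP to DsRed ratio, PSI derived from sequencing read proportions per bin multiplied by bin number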
details: c terminus: a fixed tail appended
quantity_name: protein stability index
Answers are plain numbers.

Observe how each entry below is paired with its result.
residue_change: I1F
protein stability index: 3.23

residue_change: G13D
protein stability index: 3.12

residue_change: Y16S
protein stability index: 2.22

residue_change: T8C
protein stability index: 3.51

residue_change: I1H
protein stability index: 1.82

residue_change: A23H
protein stability index: 2.38

Okay, now this variant:
Query (variant): R12K ; field requested: protein stability index
3.37
